- measuredTarget: TAG-72 positive bovine submaxillary mucin (BSM) (bovine)
- assaySummary: relative affinity constant from competition RIA on BSM
Form field: fold less Ka than HuCC49 (one value per entry).
The reply should contain only the number, in fold.

# binder, fold less Ka than HuCC49 [fold]
rows = [
    ("HuCC49 CDR variant L-1,2 (antibody, V domains shown) VH: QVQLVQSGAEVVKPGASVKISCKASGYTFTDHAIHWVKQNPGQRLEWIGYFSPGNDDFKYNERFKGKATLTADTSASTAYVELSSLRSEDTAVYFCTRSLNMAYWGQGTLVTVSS VL: DIVMSQSPDSLAVSLGERVTLNCKSSQSVLYSSNSKNYLAWYQQKPGQSPKLLIYWASTRESGVPDRFSGSGSGTDFTLTISSVQAEDVAVYYCQQYYSYPLTFGAGTKLELK", 2),
    ("HuCC49 variant MAb ^97L1,2/^60-62,64H (antibody, V domains shown) VH: QVQLVQSGAEVVKPGASVKISCKASGYTFTDHAIHWVKQNPGQRLEWIGYFSPGNDDFKYSQKFQGKATLTADTSASTAYVELSSLRSEDTAVYFCTRSLNMAYWGQGTLVTVSS VL: DIVMSQSPDSLAVSLGERVTLNCKSSQSVLYSSNSKNYLAWYQQKPGQSPKLLIYWASTRESGVPDRFSGSGSGTDFTLTISSVQAEDVAVYYCQQYYSYPLSFGAGTKLELK", 3),
    ("HuCC49 CDR variant L-1 (antibody, V domains shown) VH: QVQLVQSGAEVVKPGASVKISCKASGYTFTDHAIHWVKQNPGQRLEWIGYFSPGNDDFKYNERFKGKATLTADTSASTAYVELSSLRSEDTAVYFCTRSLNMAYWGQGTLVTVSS VL: DIVMSQSPDSLAVSLGERVTLNCKSSQSVLYSSNSKNYLAWYQQKPGQSPKLLIYWASARESGVPDRFSGSGSGTDFTLTISSVQAEDVAVYYCQQYYSYPLTFGAGTKLELK", 2),
]

Switching to the query record.
// lookup fold less Ka than HuCC49 for HuCC49 CDR variant H-2 (antibody, V domains shown) VH: QVQLVQSGAEVVKPGASVKISCKASGYTFTDHAIHWVKQNPGQRLEWIGWINAGNGNTKYSQKFQGKATLTADTSASTAYVELSSLRSEDTAVYFCTRSLNMAYWGQGTLVTVSS VL: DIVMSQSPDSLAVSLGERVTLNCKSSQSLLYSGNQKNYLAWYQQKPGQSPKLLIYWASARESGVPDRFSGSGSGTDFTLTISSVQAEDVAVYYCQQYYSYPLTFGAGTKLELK
300
